Test system: IKK-beta
Construct: gene IKBKB
Conditions: concentration: 1 μM, replicates: in singlicate; n = 1;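 note: KINOMEscan kinase panel screen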
Here, each record is paired with measured %Inh data.
outcome measure: %Inh (%)

> print(dat)
                            compound.string  measured.number
1  CCn1c(-c2nonc2N)nc2c(C#CC(C)(C)O)nc(OC[C@H](N)c3ccccc3)cc21                0
2  Cl.NC(=O)c1cccc(Nc2nccc(Nc3ccc(Oc4c(Cl)cccc4Cl)c(Cl)c3)n2)c1                0
3  c1ccc(Oc2ccc(Nc3ccnc4cc(-c5ccc(CNCCN6CCOCC6)o5)ccc34)cc2)nc1                0
4      c1ccc(-c2n[nH]cc2Nc2ccnc3ccccc23)nc1               81
5  Cc1occc1-c1ncc(OC[C@@H](N)Cc2c[nH]c3ccccc23)cc1-c1ccc2[nH]nc(C)c2c1.O=C(O)C(F)(F)F                0

---

Tested on: IRAK3
Conditions: concentration: 1 μM, replicates: in singlicate; n = 1
Could you label it rule met if measured %Inh is 20% or higher, and rule not met otherwise?

> print(dat)
                                    compound         group
 1  CC(=O)Nc1nc2cnc(Nc3cc(NC(=O)c4cccc(C5(C#N)CC5)c4Cl)ccc3C)nc2s1      rule met
 2  COCCOCCOc1cc2ncc3c4ccc(C#N)cc4[nH]c3c2cc1OC      rule met
 3  CSc1cccc2c(-c3ccncn3)c(-c3ccc(F)cc3)nn12      rule met
 4  CC(=O)N1CCN(c2ccc(Nc3nccc(-c4sc(C(C)C)nc4-c4cccc(NS(=O)(=O)c5cccc(Cl)c5)c4)n3)cn2)CC1  rule not met
 5  C[C@@H]1CC[C@@H](C(=O)Nc2ccccc2)CN1c1cc(-c2ccc3c(N)n[nH]c3c2)nc(N)n1  rule not met
 6  CN(c1ccc(NC(=O)Nc2cc(C(F)(F)F)ccc2F)cc1)c1ccnc(Nc2ccc(S(N)(=O)=O)cc2)n1      rule met
 7  Cc1occc1-c1ncc(OC[C@@H](N)Cc2c[nH]c3ccccc23)cc1-c1ccc2[nH]nc(C)c2c1.O=C(O)C(F)(F)F  rule not met
 8  Cl.c1ccc(-c2ccc3c(Nc4ccc5[nH]ccc5c4)ccnc3c2)nc1  rule not met
 9  COc1cccc(-c2ccc3c(NC(=O)C4CC4)n[nH]c3n2)c1  rule not met
10  COc1cccc(C2=C(Nc3ccc(Cl)c(C(=O)O)c3)C(=O)NC2=O)c1  rule not met
11  O=C(Nc1cccc(-c2nn3ccccc3c2-c2ccnc(Nc3cccc(C(F)(F)F)c3)n2)c1)c1c(F)cccc1F  rule not met
12      CC(C)(C)c1ccc2nccc(Nc3cccc(O)c3)c2c1  rule not met
13  Cl.c1ccc(-c2ccc3c(Nc4ccc5[nH]ncc5c4)ccnc3c2)nc1      rule met
14  Cl.NC(=O)c1cccc(Nc2nccc(Nc3ccc(Oc4c(Cl)cccc4Cl)c(Cl)c3)n2)c1      rule met
15            Oc1cc(Nc2ccnc3cc(I)ccc23)ccc1F      rule met
16  Cn1cc(-c2ccc3c(c2)CCN3C(=O)Cc2cccc(F)c2)c2c(N)ncnc21  rule not met
17  NCCCC(NC(=O)c1cc(Br)c(-c2ccnc3[nH]ccc23)s1)c1ccccc1.O=C(O)C(F)(F)F.O=C(O)C(F)(F)F (stereo not drawn)  rule not met

---

Tested on: PKAC-beta
Construct: gene PRKACB
Settings: concentration: 1 μM, replicates: in singlicate; n = 1
Here, each record is paired with measured %Inh data.
outcome measure: %Inh (%)

> print(dat)
                                    molecule  outcome.measure  measured.number
 1  Cc1cccc(NC(=O)Nc2ccc(Oc3ncnc4ccn(C)c34)cc2)c1             %Inh                0
 2  Cl.Cl.NCC(NC(=O)c1cc(-c2ccccc2)c(-c2ccnc3[nH]ccc23)s1)c1ccccc1 (centres unmarked)             %Inh               97
 3  Cc1ccc(C(=O)Nc2ccc(Nc3ccnc4cc(-c5nccs5)ccc34)cc2O)cc1.Cl             %Inh                0
 4  Cc1occc1-c1ncc(OC[C@@H](N)Cc2c[nH]c3ccccc23)cc1-c1ccc2[nH]nc(C)c2c1.O=C(O)C(F)(F)F             %Inh             99.5
 5  Cc1ccc(C)c(NC(=O)NC2CCN(c3ccnc(Nc4ccc(F)cc4)n3)C2)c1 (centres unmarked)             %Inh                0
 6  O=C(Nc1cccc(Oc2ccc3nc(NC(=O)C4CC4)cn3n2)c1)c1ccccc1C(F)(F)F             %Inh               34
 7  CCn1c(-c2nonc2N)nc2c(C#CC(C)(C)O)nc(OC[C@H](N)c3ccccc3)cc21             %Inh             97.7
 8  O=C(Nc1cccc(-c2nn3ncccc3c2-c2ccnc(Nc3ccccc3)n2)c1)c1c(F)cccc1F             %Inh                2
 9            Oc1cc(Nc2ccnc3cc(I)ccc23)ccc1F             %Inh                0
10  c1ccc(Oc2ccc(Nc3ccnc4cc(-c5ccc(CNCCN6CCOCC6)o5)ccc34)cc2)nc1             %Inh                0
11  COc1cc(Nc2nccc(N3CCC(NC(=O)c4cc5ccccc5s4)C3)n2)cc(OC)c1OC (centres unmarked)             %Inh                0
12              Nc1n[nH]c2cnc(-c3ccccc3)cc12             %Inh                0
13  CCCCc1nn2ncccc2c1-c1ccnc(Nc2ccc(N3CCN(C)CC3)cc2)n1             %Inh                8
14  COc1cc(Nc2ncc3c(C)nc(-c4cc5ccccc5[nH]4)n3n2)cc(OC)c1OC             %Inh               51
15  COCCOCCOc1cc2ncc3c4ccc(C#N)cc4[nH]c3c2cc1OC             %Inh                0
16  FC(F)(F)c1ccc(/C=C/c2cncnc2Nc2ccc3[nH]c(Cc4ccccc4)nc3c2)cc1             %Inh               29
17  CN(c1ccc(NC(=O)Nc2cc(C(F)(F)F)ccc2F)cc1)c1ccnc(Nc2ccc(S(N)(=O)=O)cc2)n1             %Inh               18

---

Test system: MARK1
Details: concentration: 1 μM, replicates: in singlicate; n = 1
outcome measure: %Inh (%)

> print(dat)
                                    molecule  outcome.measure  unit.info  measured.number
 1  FC(F)(F)c1ccc(/C=C/c2cncnc2Nc2ccc3[nH]c(Cc4ccccc4)nc3c2)cc1 [GW709199]             %Inh          %                0
 2  Cc1ccc(S(=O)(=O)Nc2ccc(Nc3nccc(Nc4cccc5[nH]ncc45)n3)cc2)cc1 [GSK581271]             %Inh          %                0
 3  CC(=O)N1CCN(c2ccc(Nc3nccc(-c4sc(C(C)C)nc4-c4cccc(NS(=O)(=O)c5cccc(Cl)c5)c4)n3)cn2)CC1 [GSK1660437]             %Inh          %                0
 4  COc1cc(Nc2ncc3c(C)nc(-c4cc5ccccc5[nH]4)n3n2)cc(OC)c1OC [GW869516]             %Inh          %               16
 5  O=C(Nc1cccc(-c2nn3ccccc3c2-c2ccnc(Nc3cccc(F)c3)n2)c1)c1c(F)ccc(F)c1Cl [GSK357952]             %Inh          %                0
 6  COc1cc(Nc2nccc(N3CCC(NC(=O)Nc4cccc(C(C)=O)c4)C3)n2)cc(OC)c1OC (centres unmarked) [GSK1379753]             %Inh          %                0
 7  Cn1cc(-c2ccc3c(c2)CCN3C(=O)Cc2cccc(F)c2)c2c(N)ncnc21 [GSK2603358]             %Inh          %               69
 8  Cc1ccc(C(=O)N2CC[C@@H](O)C2)cc1-n1c(C)cc(OCc2ccc(F)cc2F)c(Br)c1=O             %Inh          %                0
 9  O=C(Nc1cccc(-c2nn3ccccc3c2-c2ccnc(Nc3cccc(C(F)(F)F)c3)n2)c1)c1c(F)cccc1F [GSK292658]             %Inh          %                0
10  CN(C)Cc1ccc(-c2ccc3c(Nc4ccc(Oc5ccccn5)cc4)ccnc3c2)o1 [GW567148]             %Inh          %                2
11  Fc1ccc(-c2ncn(C3CCNCC3)c2-c2ccnc(Oc3ccc(-c4ccccc4)cc3)n2)cc1 [SB-245391]             %Inh          %               25
12  Cc1ccc(C(=O)Nc2ccc(Nc3ccnc4cc(-c5nccs5)ccc34)cc2O)cc1.Cl [GW494702]             %Inh          %                0
13  CC(C)(C)c1ccc2nccc(Nc3cccc(O)c3)c2c1 [GW856795]             %Inh          %                9
14  CN(C)S(=O)(=O)c1cc(-c2ccc3nccc(-c4cccc(S(N)(=O)=O)c4)c3c2)cnc1N [GSK1669921]             %Inh          %                0
15  COc1ccc(Nc2nccc(NCCNC(=O)c3cc4ccccc4s3)n2)cc1 [GSK1379896]             %Inh          %                0
16  CSc1cccc2c(-c3ccncn3)c(-c3ccc(F)cc3)nn12 [GW514786]             %Inh          %                0
17  COc1cc2c(cc1OCCN1CCNCC1)ncc1c3ccc(C#N)cc3[nH]c21             %Inh          %                0

The reported numbers originate from paper PMC5540273.
